Each recorded value in this set is attributed to the supplement of paper PMC10724198.

Test system: Saccharomyces cerevisiae
ASSAY EXPLANATION: protein stability index of tFT-peptide fusion (C-terminal peptide) (PSI (0-1 scale)); higher = more stable (slower turnover);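 further: PSI is a weighted mean of sequencing reads over stability bins, variants kept only with over 10 reads, mCherry proximal and sfGFP distal, peptide attached via GGGS linker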
RUN CONDITIONS: genetic background: wild type; temperature: 30 C
Items are presented alongside their recorded protein stability index.

-- ask Tell me protein stability index reported for HLGRRSGAQGLF
-- reply 0.699

-- ask Tell me protein stability index reported for GKRVNLNITSHS
-- reply 0.683

-- ask Tell me protein stability index reported for AARCSPSQEDSF
-- reply 0.697

---

System: Saccharomyces cerevisiae
ASSAY EXPLANATION: protein stability index of tFT-peptide fusion (C-terminal peptide) (PSI (0-1 scale)); higher = more stable (slower turnover)
RUN CONDITIONS: genetic background: wild type; temperature: 30 C
The label depends only on protein stability index: Condition met if it is at least 0.7, Condition not met if it is smaller.

-- ask Is protein stability index at least 0.7? Consider TQSYLVSLRCGF
-- reply Condition met

New cases:
-- ask Is protein stability index at least 0.7? Consider SSVFRLKGLMFL
-- reply Condition not met

-- ask Is protein stability index at least 0.7? Consider IRHTQVSHIIYA
-- reply Condition not met

-- ask Is protein stability index at least 0.7? Consider GGDWVVVALLGV
-- reply Condition not met

-- ask Is protein stability index at least 0.7? Consider LFSIFMSYRVYI
-- reply Condition not met

-- ask Is protein stability index at least 0.7? Consider VLTVVRVGVGKQ
-- reply Condition not met

-- ask Is protein stability index at least 0.7? Consider APSQPPTPPPIS
-- reply Condition not met

-- ask Is protein stability index at least 0.7? Consider FRGSVRLIGFAQ
-- reply Condition not met

-- ask Is protein stability index at least 0.7? Consider GGLSGRFRSPSL
-- reply Condition met

-- ask Is protein stability index at least 0.7? Consider PHSPSPSWFWPR
-- reply Condition met

-- ask Is protein stability index at least 0.7? Consider FYFRFPGFLAGF
-- reply Condition not met

---

System: Saccharomyces cerevisiae
ASSAY EXPLANATION: protein stability index of tFT-peptide fusion (C-terminal peptide) (PSI (0-1 scale)); higher = more stable (slower turnover)
RUN CONDITIONS: genetic background: wild type; temperature: 30 C
The label depends only on protein stability index: True if it is at least 0.7, False if it is smaller.

Field: example entries. Status: answers known.
-- ask Is protein stability index at least 0.7? Consider LVCGIGFIYFGF
-- reply False

-- ask Is protein stability index at least 0.7? Consider PPAPPPLPPPPP
-- reply True

-- ask Is protein stability index at least 0.7? Consider STGDWKLKFSKF
-- reply True

-- ask Is protein stability index at least 0.7? Consider RTPQLSVFDLGI
-- reply True

Now let's try a different one.
-- ask Is protein stability index at least 0.7? Consider EKKRERQKGEME
-- reply False

---

System: Saccharomyces cerevisiae
ASSAY EXPLANATION: protein stability index of tFT-peptide fusion (C-terminal peptide) (PSI (0-1 scale)); higher = more stable (slower turnover)
RUN CONDITIONS: genetic background: das1 deletion; temperature: 37 C
Items are presented alongside their recorded protein stability index.
Respond using a number only.

-- ask Tell me protein stability index reported for RFCLPLRLPVTT
-- reply 0.586

-- ask Tell me protein stability index reported for CVISLVTAVRLF
-- reply 0.589

-- ask Tell me protein stability index reported for YYKGGYLYLRLS
-- reply 0.607

New cases:
-- ask Tell me protein stability index reported for RVFVGLVDFLFW
-- reply 0.606

-- ask Tell me protein stability index reported for LGCLVWGGVWGV
-- reply 0.737

-- ask Tell me protein stability index reported for LILIVVVAGSVG
-- reply 0.437

-- ask Tell me protein stability index reported for LCVVVICCLMAR
-- reply 0.265
